# test_description: qHTS for Inhibitors of human tyrosyl-DNA phosphodiesterase 1 (TDP1): qHTS in cells in presence of CPT; also: nearly all actives have a fitted effect of over 55% in size
# condition_set: chicken DT40 Tdp1-/-;hTDP1 cells + 20 nM CPT, ATP luminescence, 48 h; series mostly up to 46.2 µM
The whole screen tested about 420,000 compounds, of which about 50,000 (12%) were called active. Inconclusive results (about 26%) are left out. Calls follow the shape of the dose curve; as a rule, active = well fitted inhibition curve with a large enough effect; inconclusive = small, poorly fitted or top-dose-only effect; inactive = flat fitted curve, though single readings scatter. This is one part of a sample in which actives are shown more often than they occur.
Respond using exactly one of the listed classes: Yes for active, No for inactive

query: Entry CCCC(=O)N1CCN(c2nc3c(OC)ccc(C)c3s2)CC1 : call = ?
result: No

query: Entry COc1ccc(-c2ccc(C(=O)NC(C)C)c3occc23)c(C)c1 : call = ?
result: Yes

query: Entry COc1ccc(C2OC(=O)CC2C(=O)NC(C)C)cc1 (stereo not drawn) : call = ?
result: No

query: Entry O=C(NC1CCN(S(=O)(=O)c2ccc(F)cc2)CC1)c1ccccc1 : call = ?
result: No

query: Entry COc1ccc(-c2ccc(CN3C(CC(C)C)C(=O)N(Cc4cn(CC5CCCCC5)nn4)CCS3(=O)=O)cc2)cc1 (stereo not drawn) : call = ?
result: Yes

query: Entry COc1ccc(N)c(C)c1 : call = ?
result: No

query: Entry COc1ccc([C@H]2N[C@]3(CCCN(CC4CCCCC4)C3=O)[C@H]3C(=O)N(C)C(=O)[C@@H]23)cc1 : call = ?
result: No

query: Entry COc1ccccc1CNC(=O)COc1ccc(C)nc1[N+](=O)[O-] : call = ?
result: No
